molecular target: mJHBP (Aedes aegypti, UniProt Q16Y94); construct: two OBP domains; gel filtration, Q-Sepharose and Phenyl-Sepharose purified; probably mature protein; assay: isothermal titration calorimetry, single-site fit; conditions: read-out: Ka
Sequence (Q16Y94 25-311): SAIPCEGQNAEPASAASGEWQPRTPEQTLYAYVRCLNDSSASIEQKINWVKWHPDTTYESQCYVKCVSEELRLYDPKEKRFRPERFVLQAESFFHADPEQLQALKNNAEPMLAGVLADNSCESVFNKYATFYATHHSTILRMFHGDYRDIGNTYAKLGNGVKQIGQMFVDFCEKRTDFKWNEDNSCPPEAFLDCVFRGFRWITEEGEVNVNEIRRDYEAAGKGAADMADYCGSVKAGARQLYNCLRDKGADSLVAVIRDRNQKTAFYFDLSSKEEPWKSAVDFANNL

- molecule: "COC(=O)/C=C(\\C)CC/C=C(\\C)CC[C@H]1OC1(C)C [JH III, juvenile hormone III]"
  Kd (nM): 100
